Hey, just so you know, these numbers are from patent US20250345277A1.

# Test system: DC2.4 cells
# experimental.protocol: In vitro transfection of DC2.4 cells with EGFP mRNA LNP preparation (flow cytometry)
# Assay type: cell-based, mouse
# experimental.parameters: DC2.4 cells, EGFP mRNA LNP, 200 ng mRNA per well, flow cytometry
# Cell Viability per entry

compound	unit.info	censoring.operator	Cell Viability
CCCCCCCCCCCCCCCCC(O)CN(CCOCCN(CCOCCN(CC(O)CCCCCCCCCCCCCCCC)CC(O)CCCCCCCCCCCCCCCC)CCN1CCN(C)CC1)CC(O)CCCCCCCCCCCCCCCC (stereo not shown)	%	=	93.5
CCCCCCCCCCCCCCC(O)CN(CCOCCOCCOCCN(CCOCCOCCOCCN(CC(O)CCCCCCCCCCCCCC)CC(O)CCCCCCCCCCCCCC)CCN1CCN(C)CC1)CC(O)CCCCCCCCCCCCCC (stereo not shown)	%	>	99.0
CCCCCCCCCCC(O)CN(CCOCCOCCOCCN(CCOCCOCCOCCN(CC(O)CCCCCCCCCC)CC(O)CCCCCCCCCC)CCN1CCN(CCO)CC1)CC(O)CCCCCCCCCC (stereo not shown)	%	=	84.9
CCCCCCCCCCCCCCCCC(O)CN(CCOCCOCCN(CCOCCOCCN(CC(O)CCCCCCCCCCCCCCCC)CC(O)CCCCCCCCCCCCCCCC)CCN1CCN(C)CC1)CC(O)CCCCCCCCCCCCCCCC (stereo not shown)	%	=	95.2
CCCCCCCCCCCCCCCCC(O)CN(CCOCCN(CCOCCN(CC(O)CCCCCCCCCCCCCCCC)CC(O)CCCCCCCCCCCCCCCC)CCN1CCN(CCO)CC1)CC(O)CCCCCCCCCCCCCCCC (stereo not shown)	%	=	83.6
CCCCCCCCCCCCC(O)CN(CCOCCOCCOCCN(CCOCCOCCOCCN(CC(O)CCCCCCCCCCCC)CC(O)CCCCCCCCCCCC)CCN1CCN(CCOCCOCCOCCN(CC(O)CCCCCCCCCCCC)CC(O)CCCCCCCCCCCC)CC1)CC(O)CCCCCCCCCCCC (stereo not shown)	%	=	91.3
CCCCCCCCCCCCCCC(O)CN(CCN(CCN1CCN(C)CC1)CCN(CC(O)CCCCCCCCCCCCCC)CC(O)CCCCCCCCCCCCCC)CC(O)CCCCCCCCCCCCCC (stereo not shown)	%	=	94.4
CCCCCCCCCCCCCCC(O)CN(CCN(CCN1CCN(CCO)CC1)CCN(CC(O)CCCCCCCCCCCCCC)CC(O)CCCCCCCCCCCCCC)CC(O)CCCCCCCCCCCCCC (stereo not shown)	%	=	81.3
CCCCCCCCCCCCCCC(O)CN(CCOCCOCCN(CCOCCOCCN(CC(O)CCCCCCCCCCCCCC)CC(O)CCCCCCCCCCCCCC)CCN1CCN(C)CC1)CC(O)CCCCCCCCCCCCCC (stereo not shown)	%	=	94.5
CCCCCCCCCCCCC(O)CN(CCN1CCN(CCN(CCN(CC(O)CCCCCCCCCCCC)CC(O)CCCCCCCCCCCC)CCN(CC(O)CCCCCCCCCCCC)CC(O)CCCCCCCCCCCC)CC1)CC(O)CCCCCCCCCCCC (stereo not shown)	%	=	95.4

----------
# Positive Rate (EGFP) per entry
# Tested on: PBMC cells
# experimental.protocol: In vitro transfection of PBMC cells with EGFP mRNA LNP preparation (flow cytometry)
# Type: cell-based
# experimental.parameters: PBMCs, LNP preparation added with ApoE4
quantity.kind: Positive Rate (EGFP) (%)

compound	endpoint.value
CCCCCCCCCCCCCCC(O)CN(CCOCCOCCOCCN(CCOCCOCCOCCN(CC(O)CCCCCCCCCCCCCC)CC(O)CCCCCCCCCCCCCC)CCN1CCN(CCOCCOCCOCCN(CC(O)CCCCCCCCCCCCCC)CC(O)CCCCCCCCCCCCCC)CC1)CC(O)CCCCCCCCCCCCCC [D-C16]	71.70
CCCCCCCCCCCCCCCCC(O)CN(CCN1CCN(CCN(CCN(CC(O)CCCCCCCCCCCCCCCC)CC(O)CCCCCCCCCCCCCCCC)CCN(CC(O)CCCCCCCCCCCCCCCC)CC(O)CCCCCCCCCCCCCCCC)CC1)CC(O)CCCCCCCCCCCCCCCC (stereo not shown) [A-C18]	81.90
CCCCCCCCCCC(O)CN(CCN1CCN(CCN(CCN(CC(O)CCCCCCCCCC)CC(O)CCCCCCCCCC)CCN(CC(O)CCCCCCCCCC)CC(O)CCCCCCCCCC)CC1)CC(O)CCCCCCCCCC (stereo not shown) [A-C12]	73.30
CCCCCCCCCCCCC(O)CN(CCOCCOCCOCCN(CCOCCOCCOCCN(CC(O)CCCCCCCCCCCC)CC(O)CCCCCCCCCCCC)CCN1CCN(CCOCCOCCOCCN(CC(O)CCCCCCCCCCCC)CC(O)CCCCCCCCCCCC)CC1)CC(O)CCCCCCCCCCCC [D-C14]	96.70
